target: Cholinesterase (Homo sapiens, UniProt P06276); assay: Inhibition of BChE in human serum assessed as hydrolysis of butyrylthiocholine at 10 ug/mL by Ellman's method
Sequence (P06276 whole entry): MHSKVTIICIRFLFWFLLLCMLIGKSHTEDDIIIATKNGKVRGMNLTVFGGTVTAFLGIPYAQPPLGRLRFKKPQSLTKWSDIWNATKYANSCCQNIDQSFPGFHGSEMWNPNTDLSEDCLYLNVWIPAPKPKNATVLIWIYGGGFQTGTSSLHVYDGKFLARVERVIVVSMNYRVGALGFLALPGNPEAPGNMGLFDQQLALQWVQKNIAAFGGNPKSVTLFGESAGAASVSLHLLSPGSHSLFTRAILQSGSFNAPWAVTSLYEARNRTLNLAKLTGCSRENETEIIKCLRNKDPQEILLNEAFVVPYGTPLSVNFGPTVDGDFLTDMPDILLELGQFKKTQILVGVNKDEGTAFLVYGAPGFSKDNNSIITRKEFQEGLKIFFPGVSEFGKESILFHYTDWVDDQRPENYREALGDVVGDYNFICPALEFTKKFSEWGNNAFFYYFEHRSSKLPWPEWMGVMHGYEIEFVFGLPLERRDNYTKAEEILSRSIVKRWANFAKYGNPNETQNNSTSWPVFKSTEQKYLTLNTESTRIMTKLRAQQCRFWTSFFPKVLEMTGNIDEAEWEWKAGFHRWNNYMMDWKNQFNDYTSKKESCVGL
Endpoint: inhibition (%)
// units = %; emit number, no label

| Molecule | inhibition [%] |
| --- | --- |
| CO[C@H]1O[C@@H]([C@H](O)C(=O)OCc2ccccc2)[C@@H](OCc2ccccc2)[C@@]2(OCc3ccccc3)[C@@H](OCc3ccccc3)CO[C@@H]12 | 8 |
| CO[C@H]1O[C@@H]([C@@H](O)C(=O)OCc2ccccc2)[C@@H](OCc2ccccc2)[C@@]2(OCc3ccccc3)[C@@H](OCc3ccccc3)CO[C@@H]12 | 56 |
| C=C[C@H](O)[C@@H]1O[C@H](OC)[C@@H]2OC[C@H](OCc3ccccc3)[C@]2(OCc2ccccc2)[C@@H]1OCc1ccccc1 | 54 |
| CCN(C)C(=O)Oc1cccc([C@H](C)N(C)C)c1 [RIVASTIGMINE] | 100 |
| CO[C@H]1O[C@@H]([C@H](N=[N+]=[N-])C(=O)OCc2ccccc2)[C@@H](OCc2ccccc2)[C@@]2(OCc3ccccc3)[C@@H](OCc3ccccc3)CO[C@@H]12 | 64 |

# context switch: different molecule, same inhibition
Specify measured inhibition for CC(=O)Nc1nc(Cl)c2c(ncn2[C@@H]2O[C@H](COC(C)=O)[C@@H](OCc3ccccc3)[C@@]3(OCc4ccccc4)[C@@H](OCc4ccccc4)CO[C@@H]23)n1 . 85

---

test: Cytotoxicity against human A549 cells assessed as cell viability at 2000 ug/mL after 24 hrs by MTT assay relative to control; type: cell-based; details: read-out: Activity
Response field label takes True when viability at 24 h, 2000 ug/mL is strictly below 20% and False in all other cases.

Look over these answered cases.
| Smiles | Label Value |
| --- | --- |
| COC(=O)[C@H](N=[N+]=[N-])[C@@H]1O[C@@H](n2cnc3nc(NC(C)=O)nc(Cl)c32)[C@@H]2OC[C@H](OCc3ccccc3)[C@]2(OCc2ccccc2)[C@@H]1OCc1ccccc1 | False |
| CO[C@H]1O[C@@H]([C@H](N=[N+]=[N-])C(=O)OCc2ccccc2)[C@@H](OCc2ccccc2)[C@@]2(OCc3ccccc3)[C@@H](OCc3ccccc3)CO[C@@H]12 | False |

Consider the additional compound presented here.
Is it true that viability at 24 h, 2000 ug/mL reported for COC(=O)[C@@H](N=[N+]=[N-])[C@@H]1O[C@@H](n2cnc3nc(NC(C)=O)nc(Cl)c32)[C@@H]2OC[C@H](OCc3ccccc3)[C@]2(OCc2ccccc2)[C@@H]1OCc1ccccc1 is less than 20%? True

---

Recorded inhibition, one value per entry.
target: Cholinesterase (Homo sapiens, UniProt P06276); test: Inhibition of BChE in human serum assessed as hydrolysis of butyrylthiocholine at 10 ug/mL by Ellman's method
// units = %; emit number, no label

| Smiles | inhibition, % |
| --- | --- |
| CC(=O)Nc1nc(Cl)c2c(ncn2[C@@H]2O[C@@H]([C@@H](N=[N+]=[N-])C(=O)OCc3ccccc3)[C@@H](OCc3ccccc3)[C@@]3(OCc4ccccc4)[C@@H](OCc4ccccc4)CO[C@@H]23)n1 | 79 |
| C=C[C@@H](O)[C@@H]1O[C@H](OC)[C@@H]2OC[C@H](OCc3ccccc3)[C@]2(OCc2ccccc2)[C@@H]1OCc1ccccc1 | 23 |
| CC(=O)Nc1nc(Cl)c2ncn([C@@H]3O[C@H](COC(C)=O)[C@@H](OCc4ccccc4)[C@@]4(OCc5ccccc5)[C@@H](OCc5ccccc5)CO[C@@H]34)c2n1 | 11 |
| CC(=O)Nc1nc(Cl)c2c(ncn2[C@@H]2O[C@@H]([C@H](N=[N+]=[N-])C(=O)OCc3ccccc3)[C@@H](OCc3ccccc3)[C@@]3(OCc4ccccc4)[C@@H](OCc4ccccc4)CO[C@@H]23)n1 | 34 |

# context switch: different molecule, same inhibition
Specify measured inhibition for CO[C@H]1O[C@@H]([C@@H](N=[N+]=[N-])C(=O)OCc2ccccc2)[C@@H](OCc2ccccc2)[C@@]2(OCc3ccccc3)[C@@H](OCc3ccccc3)CO[C@@H]12 . 73

---

experiment: Cytotoxicity against human A549 cells assessed as cell viability at 0.2 ug/mL after 24 hrs by MTT assay relative to control; type: cell-based; details: read-out: Activity
Endpoint: viability at 24 h, 0.2 ug/mL (%)
// units = %; emit number, no label

Sample answers from the record:
| Smiles | Endpoint | Unit Text | Readout Number |
| --- | --- | --- | --- |
| COC(=O)[C@@H](N=[N+]=[N-])[C@@H]1O[C@@H](n2cnc3nc(NC(C)=O)nc(Cl)c32)[C@@H]2OC[C@H](OCc3ccccc3)[C@]2(OCc2ccccc2)[C@@H]1OCc1ccccc1 | viability at 24 h, 0.2 ug/mL | % | 103 |
| CC(=O)Nc1nc(Cl)c2c(ncn2[C@@H]2O[C@@H]([C@H](N=[N+]=[N-])C(=O)OCc3ccccc3)[C@@H](OCc3ccccc3)[C@@]3(OCc4ccccc4)[C@@H](OCc4ccccc4)CO[C@@H]23)n1 | viability at 24 h, 0.2 ug/mL | % | 88.5 |
| CO[C@H]1O[C@@H]([C@@H](O)C(=O)OCc2ccccc2)[C@@H](OCc2ccccc2)[C@@]2(OCc3ccccc3)[C@@H](OCc3ccccc3)CO[C@@H]12 | viability at 24 h, 0.2 ug/mL | % | 91.9 |
| CO[C@H]1O[C@@H]([C@@H](N=[N+]=[N-])C(=O)OCc2ccccc2)[C@@H](OCc2ccccc2)[C@@]2(OCc3ccccc3)[C@@H](OCc3ccccc3)CO[C@@H]12 | viability at 24 h, 0.2 ug/mL | % | 90.5 |
| CO[C@H]1O[C@@H]([C@H](N=[N+]=[N-])C(=O)OCc2ccccc2)[C@@H](OCc2ccccc2)[C@@]2(OCc3ccccc3)[C@@H](OCc3ccccc3)CO[C@@H]12 | viability at 24 h, 0.2 ug/mL | % | 90.2 |

Specify measured viability at 24 h, 0.2 ug/mL for COC(=O)[C@H](N=[N+]=[N-])[C@@H]1O[C@@H](n2cnc3nc(NC(C)=O)nc(Cl)c32)[C@@H]2OC[C@H](OCc3ccccc3)[C@]2(OCc2ccccc2)[C@@H]1OCc1ccccc1 . 103

---

assay: Cytotoxicity against human A549 cells assessed as cell viability at 200 ug/mL after 24 hrs by MTT assay relative to control; format: cell-based; conditions: read-out: Activity
Endpoint: viability at 24 h, 200 ug/mL (%)
// units = %; emit number, no label

Specify measured viability at 24 h, 200 ug/mL for CC(=O)Nc1nc(Cl)c2c(ncn2[C@@H]2O[C@@H]([C@H](N=[N+]=[N-])C(=O)OCc3ccccc3)[C@@H](OCc3ccccc3)[C@@]3(OCc4ccccc4)[C@@H](OCc4ccccc4)CO[C@@H]23)n1 . 51.3

Specify measured viability at 24 h, 200 ug/mL for COC(=O)[C@@H](N=[N+]=[N-])[C@@H]1O[C@@H](n2cnc3nc(NC(C)=O)nc(Cl)c32)[C@@H]2OC[C@H](OCc3ccccc3)[C@]2(OCc2ccccc2)[C@@H]1OCc1ccccc1 . 19.5

Specify measured viability at 24 h, 200 ug/mL for CO[C@H]1O[C@@H]([C@@H](O)C(=O)OCc2ccccc2)[C@@H](OCc2ccccc2)[C@@]2(OCc3ccccc3)[C@@H](OCc3ccccc3)CO[C@@H]12 . 63.6

Specify measured viability at 24 h, 200 ug/mL for CO[C@H]1O[C@@H]([C@H](N=[N+]=[N-])C(=O)OCc2ccccc2)[C@@H](OCc2ccccc2)[C@@]2(OCc3ccccc3)[C@@H](OCc3ccccc3)CO[C@@H]12 . 47.9

Specify measured viability at 24 h, 200 ug/mL for COC(=O)[C@H](N=[N+]=[N-])[C@@H]1O[C@@H](n2cnc3nc(NC(C)=O)nc(Cl)c32)[C@@H]2OC[C@H](OCc3ccccc3)[C@]2(OCc2ccccc2)[C@@H]1OCc1ccccc1 . 52.3

Specify measured viability at 24 h, 200 ug/mL for CO[C@H]1O[C@@H]([C@@H](N=[N+]=[N-])C(=O)OCc2ccccc2)[C@@H](OCc2ccccc2)[C@@]2(OCc3ccccc3)[C@@H](OCc3ccccc3)CO[C@@H]12 . 64.2

---

assay: Cytotoxicity against human A549 cells assessed as cell viability at 20 ug/mL after 24 hrs by MTT assay relative to control; format: cell-based; conditions: read-out: Activity
Recorded viability at 24 h, 20 ug/mL, one value per entry.
I'd appreciate it if you included the unit after the number.

| Smiles | viability at 24 h, 20 ug/mL |
| --- | --- |
| COC(=O)[C@@H](N=[N+]=[N-])[C@@H]1O[C@@H](n2cnc3nc(NC(C)=O)nc(Cl)c32)[C@@H]2OC[C@H](OCc3ccccc3)[C@]2(OCc2ccccc2)[C@@H]1OCc1ccccc1 | 40.8% |
| CO[C@H]1O[C@@H]([C@@H](O)C(=O)OCc2ccccc2)[C@@H](OCc2ccccc2)[C@@]2(OCc3ccccc3)[C@@H](OCc3ccccc3)CO[C@@H]12 | 67.2% |
| COC(=O)[C@H](N=[N+]=[N-])[C@@H]1O[C@@H](n2cnc3nc(NC(C)=O)nc(Cl)c32)[C@@H]2OC[C@H](OCc3ccccc3)[C@]2(OCc2ccccc2)[C@@H]1OCc1ccccc1 | 69.3% |
| CC(=O)Nc1nc(Cl)c2c(ncn2[C@@H]2O[C@@H]([C@H](N=[N+]=[N-])C(=O)OCc3ccccc3)[C@@H](OCc3ccccc3)[C@@]3(OCc4ccccc4)[C@@H](OCc4ccccc4)CO[C@@H]23)n1 | 46.9% |
| CO[C@H]1O[C@@H]([C@H](N=[N+]=[N-])C(=O)OCc2ccccc2)[C@@H](OCc2ccccc2)[C@@]2(OCc3ccccc3)[C@@H](OCc3ccccc3)CO[C@@H]12 | 73.9% |

# context switch: different compound, same viability at 24 h, 20 ug/mL
Specify measured viability at 24 h, 20 ug/mL for CO[C@H]1O[C@@H]([C@@H](N=[N+]=[N-])C(=O)OCc2ccccc2)[C@@H](OCc2ccccc2)[C@@]2(OCc3ccccc3)[C@@H](OCc3ccccc3)CO[C@@H]12 . 63.6%
